Molecular target: CHD4 PHD1-linker (aa 361–443) (human, UniProt Q14839 361-443)
Sequence (Q14839 361-443): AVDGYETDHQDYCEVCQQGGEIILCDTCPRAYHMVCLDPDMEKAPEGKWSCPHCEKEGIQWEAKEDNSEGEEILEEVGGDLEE
Test: 75 mM NaCl
endpoint.label: Kd (nM)
Lab book: enter the figure in nM, no units written.

Req: Reported Kd for ARTKQTARKSTG [histone H3 peptide (aa 1–12)] : what is it?
Resp: 300
